Tested on: WM266-4 cells
TEST METHOD NOTES: CellTiter-Glo cell viability assay, WM266-4 (including rescue assays)
Assay type: cell-based, human
CONDITION PARAMETERS: 72 h; listed as 2529-1
RESULT TYPE: pIC50
Would you please state pIC50, meaning minus log10 of the concentration in mol/L, as a bare number?

# input If you can, please state the reported pIC50 value of O=C1NC[C@H](Cc2ccccc2)N(C[C@@H]2CCCN2C[C@@H](CC2CCCCC2)N2C[C@H](Cc3ccc(O)cc3)N(CCc3ccccc3)C(=O)C2=O)C1=O [Compound 2155-14] .
# output 5.82
